TEST_METHOD_NOTES: [3H]Thymidine incorporation assay (cell toxicity)
CONDITION_SUMMARY: human
EXPERIMENTAL_READOUT: CC50 at 72 h

MOLECULE	CC50 at 72 h
CN(C)C(=O)CN(c1cc(C#CC(C)(C)C)sc1C(=O)O)C(=O)[C@H]1CC[C@H](C)CC1	> 100 µM
CO[C@H](C)[C@@H](C(=O)N1CCOCC1)N(c1cc(C#CC(C)(C)C)sc1C(=O)O)C(=O)[C@H]1CC[C@H](C)CC1	> 100 µM

**Query** Could you tell me which CC50 at 72 h is on file for CC[C@@H](C(=O)N1CCOC(C)C1)N(C(=O)C1CCC(C)CC1)c1cc(C#CC(C)(C)C)sc1C(=O)O (some centres unmarked) ?
**Result** 10 to 100 µM

**Query** Could you tell me which CC50 at 72 h is on file for CC(C)N1CC[C@@H](N(c2cc(C#CC(C)(C)C)sc2C(=O)O)C(=O)[C@H]2CC[C@H](C)CC2)C1=O ?
**Result** > 100 µM

**Query** Could you tell me which CC50 at 72 h is on file for CCC1CCC(C(=O)N(c2cc(C#CC(C)(C)C)sc2C(=O)O)[C@@H](COC)C(=O)N2CCCC2)CC1 (some centres unmarked) ?
**Result** 10 to 100 µM

**Query** Could you tell me which CC50 at 72 h is on file for C[C@@H](C(=O)N1CCOC(C)(C)C1)N(c1cc(C#CC(C)(C)C)sc1C(=O)O)C(=O)[C@H]1CC[C@H](C)CC1 ?
**Result** > 100 µM

**Query** Could you tell me which CC50 at 72 h is on file for C[C@@H](C(=O)NC1CCC(O)CC1)N(c1cc(C#CC(C)(C)C)sc1C(=O)O)C(=O)[C@H]1CC[C@H](C)CC1 (some centres unmarked) ?
**Result** > 100 µM

**Query** Could you tell me which CC50 at 72 h is on file for C[C@@H](C(=O)N1CC[C@@H](O)C1)N(c1cc(C#CC(C)(C)C)sc1C(=O)O)C(=O)[C@H]1CC[C@H](C)CC1 ?
**Result** > 100 µM

**Query** Could you tell me which CC50 at 72 h is on file for CC1(C#Cc2cc(N(CC(=O)N3CCOCC3)C(=O)[C@H]3CC[C@H](C)CC3)c(C(=O)O)s2)CC1 ?
**Result** > 100 µM

**Query** Could you tell me which CC50 at 72 h is on file for CCOC[C@@H](C(=O)N(C)C)N(c1cc(C#CC(C)(C)C)sc1C(=O)O)C(=O)[C@H]1CC[C@H](C)CC1 ?
**Result** > 100 µM

**Query** Could you tell me which CC50 at 72 h is on file for CC1CCC(C(=O)N(c2cc(C#CC(C)(C)C)sc2C(=O)O)[C@@H]2CCN(C)C2=O)CC1 (single isomer, unassigned) ?
**Result** > 100 µM

**Query** Could you tell me which CC50 at 72 h is on file for CC(C)N1CC[C@H](N(c2cc(C#CC(C)(C)C)sc2C(=O)O)C(=O)[C@H]2CC[C@H](C)CC2)C1=O ?
**Result** 10 to 100 µM

**Query** Could you tell me which CC50 at 72 h is on file for CC[C@@H](C(=O)N(C)CC1CCOC1)N(c1cc(C#CC(C)(C)C)sc1C(=O)O)C(=O)[C@H]1CC[C@H](C)CC1 (some centres unmarked) ?
**Result** > 100 µM

**Query** Could you tell me which CC50 at 72 h is on file for C[C@@H](O)[C@@H](C(=O)N(C)C)N(c1cc(C#CC(C)(C)C)sc1C(=O)O)C(=O)[C@H]1CC[C@H](C)CC1 ?
**Result** > 100 µM

====

Documented CC50 at 72 h across a set of compounds
TEST_METHOD_NOTES: [3H]Thymidine incorporation assay (cell toxicity)
CONDITION_SUMMARY: human

Worked cases, answers included:
C[C@@H](CC(=O)N1CCN(C)CC1)N(c1cc(C#CC(C)(C)C)sc1C(=O)O)C(=O)[C@H]1CC[C@H](C)CC1 > 100 µM
C[C@@H](CC(=O)N(C)C1CCN(C)CC1)N(c1cc(C#CC(C)(C)C)sc1C(=O)O)C(=O)[C@H]1CC[C@H](C)CC1 > 100 µM
C[C@H](C(=O)N(C)C)N(c1cc(C#CC(C)(C)C)sc1C(=O)O)C(=O)[C@H]1CC[C@H](C)CC1 10 to 100 µM

Alright, here's another compound for you.
**Query** Could you tell me which CC50 at 72 h is on file for CO[C@@H](C)[C@H](C(=O)N1CCOCC1)N(c1cc(C#CC(C)(C)C)sc1C(=O)O)C(=O)[C@H]1CC[C@H](C)CC1 ?
**Result** > 100 µM
